tested on: Bacillus subtilis; test: cleaved RNA product abundance (RNA/gDNA barcode ratio) relative to median wild-type variant (ratio to wild type); higher = more accumulation of the downstream cleavage product; conditions: experiment (reporter, strain, medium): exp 4a: truncated aprE reporter, strain BJT201 with 2% xylose (RNase J1 expressed); cleavage site: cggR-gapA (positions -7 to +36 mutated)
Label Criterion met for high-side cleaved RNA product abundance (at or above 0.2) and Criterion not met for low-side cleaved RNA product abundance (below it).

Before answering, review these 6 worked examples.
| item sequence | measured on | class label |
| --- | --- | --- |
| ACAGACGAAGGAGCCGCAAAGAAGATATTAAGGGATGAACAATCCCTCAATATAAATATCTCTCACTTATTTAAA | Bacillus subtilis | Criterion met |
| ACAGACGAAGGAGCCGCAAAGAATTTATTAAGGGATGAATAATCCCTCAATATAAATATCTCTCACTTATTTAAA | Bacillus subtilis | Criterion met |
| ACAGACGAAGGAGCCGCAAAGAAGTTATTAAGGGATGAATAATCACTCAATATAGATATCTCTCACTTATTTAAA | Bacillus subtilis | Criterion not met |
| ACAGACGAAGGAGCCGCAAAGAAGTAATTAAGGGATGAATAATCCCTCATTATAAATATCTCTCACTTATTTAAA | Bacillus subtilis | Criterion met |
| ACAGACGAAGGAGCCGCAAAGAAGTAATTAAGGGATGAATATTCCCTCAATATAAATATCTCTCACTTATTTAAA | Bacillus subtilis | Criterion met |
| ACAGACGAAGGAGCCGCAAAGAAGTTATTAAGGGATGAAAAATCTCTCAATATAAATATCTCTCACTTATTTAAA | Bacillus subtilis | Criterion met |

Hi team, for ACAGACGAAGGAGCCGCAAATAAGTTATTAAGGTATGAATAATCCCTCAATATAAATTTCTCTCACTTATTTAAA , is the recorded cleaved RNA product abundance at or above 0.2?
Criterion not met

Hi team, for ACAGACGAAGGAGCCGCAAAGAAGTTATTAAGGGATGAATAACCCCTCAATCTAAATATCTCTCACTTATTTAAA , is the recorded cleaved RNA product abundance at or above 0.2?
Criterion not met

Hi team, for ACAGACGAAGGAGCCGCAAAAAAGTTATTAAGGGATGAATAATCCCTCAGTATAAATATCTCTCACTTATTTAAA , is the recorded cleaved RNA product abundance at or above 0.2?
Criterion met

Hi team, for ACAGACGAAGGAGCCGCAATGAAGTTATTAAGGGATGAATAATCGCTCAATATAAATATCTCTCACTTATTTAAA , is the recorded cleaved RNA product abundance at or above 0.2?
Criterion not met

Hi team, for ACAGACGAAGGAGCCGCAAAGAAGTTATTAACGGAAGAATAATCCCTCAATATAAATATCTCTCACTTATTTAAA , is the recorded cleaved RNA product abundance at or above 0.2?
Criterion not met

----------
Item-by-item account of cleaved RNA product abundance
tested on: Bacillus subtilis; assay: cleaved RNA product abundance (RNA/gDNA barcode ratio) relative to median wild-type variant (ratio to wild type); higher = more accumulation of the downstream cleavage product; conditions: experiment (reporter, strain, medium): exp 2b: truncated aprE reporter, strain BJT200; cleavage site: cggR-gapA (positions -7 to +36 mutated)
Write no unit; give the number alone.

Use these answered entries as a reference point.
| item sequence | reported result |
| --- | --- |
| ACAGACGAAGGAGCCGCAAAGAAGTTATTAATGGATGAATAATCCCCCAATATAAATATCTCTCACTTATTTAAA | 0.0983 |
| ACAGACGAAGGAGCCGCAAAGAAGATATTAAGGGATGAATAATCCCTCAACATAAATATCTCTCACTTATTTAAA | 0.131 |
| ACAGACGAAGGAGCCGCAAAGAAGTTATTAAGGTATGAAAAATCCCTCAATATAAATATCTCTCACTTATTTAAA | 0.0949 |

Which cleaved RNA product abundance reading was recorded for the sequence ACAGACGAAGGAGCCGCAATGAAGTTATTAAGGGATGAATAATCCCTCAATATAAAAATCTCTCACTTATTTAAA ?
0.872

Which cleaved RNA product abundance reading was recorded for the sequence ACAGACGAAGGAGCCGCAAAGAAGTTTTTAAGGGATGACTAATCCCTCAATATAAATATCTCTCACTTATTTAAA ?
0.201

Which cleaved RNA product abundance reading was recorded for the sequence ACAGACGAAGGAGCCGCAAAGAAGTTATTAAGGGATGAATAATACGTCAATATAAATATCTCTCACTTATTTAAA ?
0.0926

Which cleaved RNA product abundance reading was recorded for the sequence ACAGACGAAGGAGCCGCAAAGAAGTTATTAATGGATGAATAATCCCTCAATATAATTATCTCTCACTTATTTAAA ?
0.13

Which cleaved RNA product abundance reading was recorded for the sequence ACAGACGAAGGAGCCGCAAAGAAGTTATTAAGGTATGAATAATCCCTCAATATATATATCTCTCACTTATTTAAA ?
0.121

Which cleaved RNA product abundance reading was recorded for the sequence ACAGACGAAGGAGCCGCAAAGAAGTTATTAAGGGATCAATAATCCCTCAATATAGATATCTCTCACTTATTTAAA ?
0.534

Which cleaved RNA product abundance reading was recorded for the sequence ACAGACGAAGGAGCCGCAAATAAGTTCTTAAGGGATGAATAATCCCTCAATATAAATATCTCTCACTTATTTAAA ?
0.148

Which cleaved RNA product abundance reading was recorded for the sequence ACAGACGAAGGAGCCGCAAAAAAGTTATTAAGGGATGAATAATCCCTCAAAATAAATATCTCTCACTTATTTAAA ?
0.349

Which cleaved RNA product abundance reading was recorded for the sequence ACAGACGAAGGAGCCGCAAAGAAGTTATTAATGGATGAATCATCCCTCAATATAAATATCTCTCACTTATTTAAA ?
0.122

Which cleaved RNA product abundance reading was recorded for the sequence ACAGACGAAGGAGCCGCAAAGAAGTCATTAAGGTATGAATAATCCCTCAATATAAATATCTCTCACTTATTTAAA ?
0.0941

Which cleaved RNA product abundance reading was recorded for the sequence ACAGACGAAGGAGCCGCAAAGATGTTATTAAGGGATGCATAATCCCTCAATATAAATATCTCTCACTTATTTAAA ?
0.859

Which cleaved RNA product abundance reading was recorded for the sequence ACAGACGAAGGAGCCGCAAAAAAGTTATTACGGGATGAATAATCCCTCAATATAAATATCTCTCACTTATTTAAA ?
0.329

----------
test system: Bacillus subtilis; test: cleaved RNA product abundance (RNA/gDNA barcode ratio) relative to median wild-type variant (ratio to wild type); higher = more accumulation of the downstream cleavage product; settings: experiment (reporter, strain, medium): exp 4a: truncated aprE reporter, strain BJT201 with 2% xylose (RNase J1 expressed); cleavage site: cggR-gapA (positions -7 to +36 mutated)
Category | rule: reported cleaved RNA product abundance within range, see class A (below 0.2), class B (0.2 to below 0.5), class C (0.5 or more)

| item sequence | class label |
| --- | --- |
| ACAGACGAAGGAGCCGCAAAGAAGTTATTAAGGGATGAAAAATCCCTCAAGATAAATATCTCTCACTTATTTAAA | class B |

Query sequence follows.
State the class of the sequence shown: ACAGACGAAGGAGCCGCAAAGAAATTATTAAGGGATGAATAATCCCTCAATATACATATCTCTCACTTATTTAAA
class B

----------
system: Bacillus subtilis; test: cleaved RNA product abundance (RNA/gDNA barcode ratio) relative to median wild-type variant (ratio to wild type); higher = more accumulation of the downstream cleavage product; details: experiment (reporter, strain, medium): exp 2b: truncated aprE reporter, strain BJT200; cleavage site: cggR-gapA (positions -7 to +36 mutated)
quantity: cleaved RNA product abundance
Write no unit; give the number alone.

Use these answered entries as a reference point.
| item sequence | reported result |
| --- | --- |
| ACAGACGAAGGAGCCGCAAAGAAGTTATTAAGGGAAGAATAAGCCCTCAATATAAATATCTCTCACTTATTTAAA | 0.433 |
| ACAGACGAAGGAGCCGCAAAGAAGTTATTAAGGAATGAATAATCCCCCAATATAAATATCTCTCACTTATTTAAA | 0.122 |
| ACAGACGAAGGAGCCGCGAAGAAGTTATTAACGGATGAATAATCCCTCAATATAAATATCTCTCACTTATTTAAA | 0.164 |

# next sequence below
Which cleaved RNA product abundance reading was recorded for the sequence ACAGACGAAGGAGCCGCATAGAAGTTATTAAGGGATGAATAATACCTCAATATAAATATCTCTCACTTATTTAAA ?
0.115

----------
tested on: Bacillus subtilis; assay: cleaved RNA product abundance (RNA/gDNA barcode ratio) relative to median wild-type variant (ratio to wild type); higher = more accumulation of the downstream cleavage product; settings: experiment (reporter, strain, medium): exp 4a: truncated aprE reporter, strain BJT201 with 2% xylose (RNase J1 expressed); cleavage site: cggR-gapA (positions -7 to +36 mutated)
Label Satisfied for high-side cleaved RNA product abundance (at or above 0.2) and Not satisfied for low-side cleaved RNA product abundance (below it).

Before answering, review these 6 worked examples.
| item sequence | class label |
| --- | --- |
| ACAGACGAAGGAGCCGCAAAGAAATTATTAAGGGATGAATAATCCCTCCATATAAATATCTCTCACTTATTTAAA | Satisfied |
| ACAGACGAAGGAGCCGCAAAGAAGTTATTAAAGGATGACTAATCCCTCAATATAAATATCTCTCACTTATTTAAA | Not satisfied |
| ACAGACGAAGGAGCCGCAAAGAAGGTATTAAGGGATGAATAATCCCTCAATATAACTATCTCTCACTTATTTAAA | Satisfied |
| ACAGACGAAGGAGCCGCAAATAAGTTATTAAGGGATGAATAATCCCTCAATATATATATCTCTCACTTATTTAAA | Satisfied |
| ACAGACGAAGGAGCCGCAAAGAAGGTATTAAGGAATGAATAATCCCTCAATATAAATATCTCTCACTTATTTAAA | Not satisfied |
| ACAGACGAAGGAGCCGCAAAGAAGTTATTAAGGGATGAATAATCCCTAAAAATAAATATCTCTCACTTATTTAAA | Satisfied |

Hi team, for ACAGACGAAGGAGCCGCAAACAAGTTATTAAGTGATGAATAATCCCTCAATATAAATATCTCTCACTTATTTAAA , is the recorded cleaved RNA product abundance at or above 0.2?
Not satisfied
